Data origin, for the record: the supplement of paper PMC10567573

B1: NFE2L1 (parent)
chain: TLDGYGIHPKSIDLDNYFTARRLL

# Variants of: B1
# experimental-details: protein stability index of a GFP-peptide fusion (GPS, HEK-293T) (PSI 1-6); higher = more stable;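 also: lentivirally expressed fusions sorted by FACS into six bins by GFP to DsRed ratio, PSI derived from sequencing read proportions per bin multiplied by bin number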
# condition-notes: c terminus: a fixed tail appended
experimental-endpoint: protein stability index
Field format: numeric only.

Past entries and their recorded results:
[[record]]
mut = "Y17S"
experimental_endpoint = "protein stability index"
reported_result = 2.55

[[record]]
mut = "L24M"
experimental_endpoint = "protein stability index"
reported_result = 2.5

[[record]]
mut = "N16E"
experimental_endpoint = "protein stability index"
reported_result = 2.19

[[record]]
mut = "Y17W"
experimental_endpoint = "protein stability index"
reported_result = 1.5

[[record]]
mut = "G4L"
experimental_endpoint = "protein stability index"
reported_result = 1.27

[[record]]
mut = "I12Q"
experimental_endpoint = "protein stability index"
reported_result = 2.33

[[record]]
mut = "L23Q"
experimental_endpoint = "protein stability index"
reported_result = 2.71

[[record]]
mut = "L2W"
experimental_endpoint = "protein stability index"
reported_result = 2.37


As a next step, examine the variant that follows.
Query: # input variant: D15H ; wanted: its protein stability index
Response: 1.89
